Measured log10 of EC50 by item
# testSystem: Sphingosine 1-phosphate receptor 1 (Homo sapiens)
# Sequence (P21453 whole entry): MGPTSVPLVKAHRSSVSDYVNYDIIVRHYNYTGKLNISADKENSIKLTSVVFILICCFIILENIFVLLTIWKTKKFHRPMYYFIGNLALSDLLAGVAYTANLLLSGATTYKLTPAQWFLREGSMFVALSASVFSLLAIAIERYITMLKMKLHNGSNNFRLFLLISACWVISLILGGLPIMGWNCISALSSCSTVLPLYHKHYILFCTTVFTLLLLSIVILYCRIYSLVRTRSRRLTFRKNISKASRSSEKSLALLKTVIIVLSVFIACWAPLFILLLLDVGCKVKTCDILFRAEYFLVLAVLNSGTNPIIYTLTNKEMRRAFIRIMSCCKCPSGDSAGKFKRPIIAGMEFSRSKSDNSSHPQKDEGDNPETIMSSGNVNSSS
# measurementNotes: Agonist activity at human S1P1 receptor expressed in EDG1-bla U2OS cells incubated for 18 hrs prior to GenBlazer substrate addition by beta-arrestin recruitment assay
Values below are the log10 of the recorded EC50, with nM as the unit.

Sample records with log10 of EC50:
CC(=O)N1CCOC[C@@H]1COc1cc(Cl)c(-c2nnc(-c3cc(C)nc(NC(C)C)c3)s2)cc1F 2.49
Cc1cc(-c2nc(-c3cc(F)c(OC[C@H](N)CO)cc3Cl)no2)cc(CC(C)C)n1 1.30
Cc1cc(-c2nc(-c3cc(F)c(OC[C@H]4CCC(=O)N4)cc3Cl)no2)cc(NC(C)C)n1 -0.10
Cc1cc(-c2nc(-c3cc(C)c(OC[C@H]4COC(=O)N4)cn3)no2)cc(CC(C)C)n1 1.80
Cc1cc(-c2nnc(-c3cc(F)c(OC[C@H]4CCC(=O)N4)cc3Cl)s2)cc(NC(C)C)n1 2.52

Next molecule, log10 of EC50 to be filled in.
Lab note: need log10 of EC50 with Sphingosine 1-phosphate receptor 1 (Homo sapiens) for entry "Cc1cc(-c2nc(-c3cnc(OC[C@H]4COC(=O)N4)c(C)c3)no2)cc(CC(C)C)n1" , please look it up.
0.15
